Numbers sourced from BindingDB's records for PubMed 8100350.

Where a SMILES comes first, the peptide text is derived from it. Bridges are numbered along the chain shown (N, C = ends). [ ]: non-standard residue; d: D form. Phe(4-Cl) = N[C@@H](Cc1ccc(Cl)cc1)C(=O)O; d2Nal = N[C@H](Cc1ccc2ccccc2c1)C(=O)O; 1Nal = N[CH](Cc1cccc2ccccc12)C(=O)O; Thr(ol) = C[CH](O)[CH](N)CO; Ahp = NCCCCCCC(=O)O
Entries with reported Ki on Somatostatin receptor type 2 (Mus musculus, UniProt P30875)
Sequence (P30875 whole entry): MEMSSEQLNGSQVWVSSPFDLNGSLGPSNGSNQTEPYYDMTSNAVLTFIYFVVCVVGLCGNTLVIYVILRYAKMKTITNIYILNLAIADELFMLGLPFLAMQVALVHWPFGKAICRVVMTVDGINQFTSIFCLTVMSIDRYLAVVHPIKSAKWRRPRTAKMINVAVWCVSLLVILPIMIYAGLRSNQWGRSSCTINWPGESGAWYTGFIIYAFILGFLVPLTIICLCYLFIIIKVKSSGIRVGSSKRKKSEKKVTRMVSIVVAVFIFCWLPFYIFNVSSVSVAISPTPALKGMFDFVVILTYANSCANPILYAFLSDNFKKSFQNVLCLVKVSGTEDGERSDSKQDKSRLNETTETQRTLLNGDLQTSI
The reply should contain only the number, in µM.

Use the examples below as a reference point.
CC(C)C1NC(=O)C(CCCCN)NC(=O)C(Cc2c[nH]c3ccccc23)NC(=O)C(Cc2ccc(O)cc2)NC(=O)C(NC(=O)C(N)Cc2cccc3ccccc23)CSSCC(C(=O)NC(CO)C(C)O)NC1=O (centres undefined) [DC23-60] (H-[1Nal]CYWKVC[Thr(ol)]; disulfide 2-7; configuration not given here)    0.00093
C[C@@H](O)[C@@H]1NC(=O)[C@H](CCCCN)NC(=O)[C@@H](Cc2c[nH]c3ccccc23)NC(=O)[C@H](Cc2ccccc2)NC(=O)CCCCCCNC1=O [c[Aha-Phe-D-Trp-Lys-Thr]] (cyclo([Ahp]F[dW]KT))    1
CC(C)[C@H](NC(=O)[C@H](CCCCN)NC(=O)[C@@H](Cc1c[nH]c2ccccc12)NC(=O)[C@H](Cc1ccc(O)cc1)NC(=O)[C@H](C)NC(=O)[C@H](N)Cc1ccccc1)C(=O)N[C@@H](C)C(=O)N[C@H](Cc1ccc2ccccc2c1)C(N)=O (H-[dF]AY[dW]KVA[d2Nal]-NH2)    0.06

Now take the following molecule into account.
API: value(readout=Ki, system=Somatostatin receptor type 2 (Mus musculus, UniProt P30875)) for record C[C@@H](O)[C@H](NC(=O)[C@H](Cc1ccccc1)NC(=O)[C@@H](NC(=O)[C@H](CCCCN)NC(=O)[C@@H](Cc1c[nH]c2ccccc12)NC(=O)[C@H](Cc1ccc(O)cc1)NC(=O)[C@H](Cc1ccc(Cl)cc1)NC(=O)[C@H](N)Cc1ccc2ccccc2c1)[C@@H](C)O)C(N)=O [CAS_150155-63-8] (H-[d2Nal][Phe(4-Cl)]Y[dW]KTFT-NH2)
0.04

###

Entries with reported Ki on Somatostatin receptor type 3 (Mus musculus, UniProt P30935)
Sequence (P30935 whole entry): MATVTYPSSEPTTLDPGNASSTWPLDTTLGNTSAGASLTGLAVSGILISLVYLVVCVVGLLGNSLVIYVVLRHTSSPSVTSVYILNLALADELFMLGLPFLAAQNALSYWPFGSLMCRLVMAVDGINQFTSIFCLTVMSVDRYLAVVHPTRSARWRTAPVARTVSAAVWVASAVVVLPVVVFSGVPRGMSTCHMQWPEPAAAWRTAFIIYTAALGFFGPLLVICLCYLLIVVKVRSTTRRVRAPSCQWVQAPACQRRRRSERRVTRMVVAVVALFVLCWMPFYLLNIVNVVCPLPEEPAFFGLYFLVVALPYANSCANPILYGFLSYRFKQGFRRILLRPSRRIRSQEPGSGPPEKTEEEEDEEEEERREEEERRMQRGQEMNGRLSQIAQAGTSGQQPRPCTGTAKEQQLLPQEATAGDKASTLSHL
Where a SMILES comes first, the peptide text is derived from it. Bridges are numbered along the chain shown (N, C = ends). [ ]: non-standard residue; d: D form. The star is where a group is joined. ξ: configuration not given here. NH(1-naphthylmethyl) = c1ccc2c(CN*)cccc2c1; d2Nal = N[C@H](Cc1ccc2ccccc2c1)C(=O)O; NMeA = CN[C@@H](C)C(=O)O; Abu = CC[C@H](N)C(=O)O; Ahp = NCCCCCCC(=O)O; Bn = c1ccc(C*)cc1; ξC = NC(CS)C(=O)O
The reply should contain only the number, in nM.

Use the examples below as a reference point.
CC[C@@H]1NC(=O)[C@H](CCCCN)NC(=O)[C@@H](Cc2c[nH]c3ccccc23)NC(=O)[C@H](Cc2ccc(O)cc2)NC(=O)[C@H](C)N(C)C(=O)[C@H](Cc2ccccc2)NC1=O [BIM-23027] (cyclo([Abu]F[NMeA]Y[dW]K))    2.4
C[C@@H](O)[C@@H]1NC(=O)[C@H](CCCCN)NC(=O)[C@@H](Cc2c[nH]c3ccccc23)NC(=O)[C@H](Cc2c[nH]c3ccccc23)NC(=O)[C@H](Cc2ccccc2)NC(=O)CCCCCCNC(=O)[C@H](Cc2ccccc2)NC1=O [L-362855] (cyclo([Ahp]FW[dW]KTF))    30
CC(C)[C@H](NC(=O)[C@H](CCCCN)NC(=O)[C@@H](Cc1c[nH]c2ccccc12)NC(=O)[C@H](Cc1ccc(O)cc1)NC(=O)[C@H](C)NC(=O)[C@H](N)Cc1ccc2ccccc2c1)C(=O)N[C@@H](C)C(=O)N[C@H](C(N)=O)[C@@H](C)O [D-Nal-Ala-Tyr-D-Trp-Lys-Val-Ala-Thr-NH2] (H-[d2Nal]AY[dW]KVAT-NH2)    10

API: value(readout=Ki, system=Somatostatin receptor type 3 (Mus musculus, UniProt P30935)) for record NCCCC[C@@H]1NC(=O)[C@@H](Cc2c[nH]c3ccccc23)NC(=O)[C@H](Cc2ccccc2)NC(=O)CCCCCCNC(=O)[C@H](COCc2ccccc2)NC1=O [c[Aha-Phe-D-Trp-Lys-Ser(Bzl)]] (cyclo([Ahp]F[dW]KS(Bn)))
214

API: value(readout=Ki, system=Somatostatin receptor type 3 (Mus musculus, UniProt P30935)) for record CC(O)C1NC(=O)C(CCCCN)NC(=O)C(Cc2c[nH]c3ccccc23)NC(=O)C(Cc2ccc(O)cc2)NC(=O)C(NC(=O)C(N)Cc2ccccc2)CSSCC(C(=O)NCc2cccc3ccccc23)NC1=O (stereo not drawn) [BIM 23060] (H-FCYWKTC-{NH(1-naphthylmethyl)}; disulfide 2-7; configuration not given here)
17.4

API: value(readout=Ki, system=Somatostatin receptor type 3 (Mus musculus, UniProt P30935)) for record C[C@@H](O)[C@@H]1NC(=O)[C@H](CCCCN)NC(=O)[C@@H](Cc2c[nH]c3ccccc23)NC(=O)[C@H](Cc2ccccc2)NC(=O)[C@@H]2CSSCC(NC1=O)C(=O)NCCCCCCC(=O)N2 (cyclo([Ahp]CF[dW]KT[ξC]); disulfide 2-7)
0.08

API: value(readout=Ki, system=Somatostatin receptor type 3 (Mus musculus, UniProt P30935)) for record C[C@@H](O)[C@@H]1NC(=O)[C@H](CCCCN)NC(=O)[C@@H](Cc2c[nH]c3ccccc23)NC(=O)[C@H](Cc2ccccc2)NC(=O)[C@@H]2CCCN2C(=O)[C@H](Cc2ccccc2)NC1=O (cyclo(PF[dW]KTF))
108

API: value(readout=Ki, system=Somatostatin receptor type 3 (Mus musculus, UniProt P30935)) for record C[C@@H](O)[C@@H]1NC(=O)[C@H](CCCCN)NC(=O)[C@@H](Cc2c[nH]c3ccccc23)NC(=O)[C@H](Cc2ccccc2)NC(=O)CCCCCCNC1=O [c[Aha-Phe-D-Trp-Lys-Thr]] (cyclo([Ahp]F[dW]KT))
1000

###

Entries with reported pKi on Somatostatin receptor type 3 (Mus musculus)
Where a SMILES comes first, the peptide text is derived from it. Bridges are numbered along the chain shown (N, C = ends). [ ]: non-standard residue; d: D form. The star is where a group is joined. NH(1-naphthylmethyl) = c1ccc2c(CN*)cccc2c1
Keep it numeric: pKi is minus log10 of the concentration in mol/L.

API: value(readout=pKi, system=Somatostatin receptor type 3 (Mus musculus)) for record CC(O)C1NC(=O)C(CCCCN)NC(=O)C(Cc2c[nH]c3ccccc23)NC(=O)C(Cc2ccccc2)NC(=O)C(NC(=O)C(N)Cc2ccccc2)CSSCC(C(=O)NCc2cccc3ccccc23)NC1=O (configuration not stated) [EC5-21] (H-FCFWKTC-{NH(1-naphthylmethyl)}; disulfide 2-7; configuration not given here)
7.70

API: value(readout=pKi, system=Somatostatin receptor type 3 (Mus musculus)) for record CC(C)[C@H](NC(=O)[C@H](CCCCN)NC(=O)[C@@H](Cc1c[nH]c2ccccc12)NC(=O)[C@H](Cc1ccc(O)cc1)NC(=O)[C@H](Cc1ccccc1)NC(=O)[C@H](N)Cc1ccccc1)C(=O)N[C@@H](Cc1ccccc1)C(=O)N[C@H](Cc1ccccc1)C(N)=O (H-[dF]FY[dW]KVF[dF]-NH2)
7.42

###

Where a SMILES comes first, the peptide text is derived from it. [ ]: non-standard residue; d: D form. Phe(4-NO2) = N[C@@H](Cc1ccc([N+](=O)[O-])cc1)C(=O)O; Phe(4-Cl) = N[C@@H](Cc1ccc(Cl)cc1)C(=O)O; d2Nal = N[C@H](Cc1ccc2ccccc2c1)C(=O)O
Entries with reported pKi on Somatostatin receptor type 1 (Homo sapiens)
Sequence (P30872 whole entry): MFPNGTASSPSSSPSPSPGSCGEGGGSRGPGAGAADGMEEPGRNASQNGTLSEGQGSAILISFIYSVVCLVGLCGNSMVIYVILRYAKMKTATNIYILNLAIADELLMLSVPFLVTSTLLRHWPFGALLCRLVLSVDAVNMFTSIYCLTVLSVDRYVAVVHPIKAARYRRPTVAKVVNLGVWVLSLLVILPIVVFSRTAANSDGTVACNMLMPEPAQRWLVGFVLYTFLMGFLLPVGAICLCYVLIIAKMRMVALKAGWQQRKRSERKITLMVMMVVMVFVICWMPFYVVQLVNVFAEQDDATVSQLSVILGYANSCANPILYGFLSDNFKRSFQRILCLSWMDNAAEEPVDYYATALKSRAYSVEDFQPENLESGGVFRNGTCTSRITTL
Keep it numeric: pKi is minus log10 of the concentration in mol/L.

C[C@@H](O)[C@H](NC(=O)[C@H](Cc1ccccc1)NC(=O)[C@@H](NC(=O)[C@H](CCCCN)NC(=O)[C@@H](Cc1c[nH]c2ccccc12)NC(=O)[C@H](Cc1ccc(O)cc1)NC(=O)[C@H](Cc1ccc(Cl)cc1)NC(=O)[C@H](N)Cc1ccc2ccccc2c1)[C@@H](C)O)C(N)=O [CAS_150155-63-8] (H-[d2Nal][Phe(4-Cl)]Y[dW]KTFT-NH2)    6.00
CC(C)[C@H](NC(=O)[C@H](CCCCN)NC(=O)[C@@H](Cc1c[nH]c2ccccc12)NC(=O)[C@H](Cc1ccc(O)cc1)NC(=O)[C@H](Cc1ccc([N+](=O)[O-])cc1)NC(=O)[C@H](N)Cc1ccccc1)C(=O)N[C@@H](Cc1ccccc1)C(=O)N[C@H](C(N)=O)[C@@H](C)O [BIM 23066] (H-[dF][Phe(4-NO2)]Y[dW]KVFT-NH2)    6.00

Now take the following compound into account.
API: value(readout=pKi, system=Somatostatin receptor type 1 (Homo sapiens)) for record C[C@@H](O)[C@@H]1NC(=O)[C@H](CCCCN)NC(=O)[C@@H](Cc2c[nH]c3ccccc23)NC(=O)[C@H](Cc2ccccc2)NC(=O)[C@@H]2CCCN2C(=O)[C@H](Cc2ccccc2)NC1=O (cyclo(PF[dW]KTF))
6.00
